B1: ESR2 (parent)
chain: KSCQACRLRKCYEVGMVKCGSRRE

- Variants of: B1
- Test Summary: protein stability index of a GFP-peptide fusion (GPS, HEK-293T) (PSI 1-6); higher = more stable;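 further: lentivirally expressed fusions sorted by FACS into six bins by GFP to DsRed ratio, PSI derived from sequencing read proportions per bin multiplied by bin number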
- Assay Context: c terminus: a fixed tail appended
Measurement Name: protein stability index
Answers are plain numbers.

Please state protein stability index for every variant in the list that follows.
1. S2L
2. A5C
3. L8W
4. K18G
5. S21N
6. Q4M

1. 1.56
2. 2.08
3. 1.87
4. 1.8
5. 2.57
6. 2.18

Please state protein stability index for every variant in the list that follows.
1. V17I
2. C6N
3. C6Y
4. V14T

1: 2.21; 2: 2.94; 3: 2.28; 4: 1.96

Please state protein stability index for every variant in the list that follows.
1. C3G
2. K18I
3. C19S
4. A5L
5. Q4D

1. 2.97
2. 1.49
3. 1.61
4. 2.29
5. 1.81
